The values you see were collected from PubChem BioAssay (NCI).

Test system: RPMI-8226 leukemia
Experiment: NCI tumour cell line growth inhibition, 48 h
measured_metric: TGI

Fill in TGI for each of the 6 compounds listed.
1. COc1cc(SC)ccc1C(=O)N1CCCC(C)C1 (stereo unspecified)
2. N#Cc1nc(Cc2cccs2)oc1N
3. COc1cc(C(N)=O)c(OC)c(OC)c1OC
4. Cn1c(=O)n2n(c1=O)C1C(=CC2)C2C=CC1n1c(=O)n(C)c(=O)n12 (stereo unspecified)
5. Cc1cc(C#Cc2ccccc2)ccc1-n1c(/C=C/c2ccc(O)cc2)nc2ccccc2c1=O
6. COc1ccc(N2C(=O)CSC2c2cc(OC)c(OC)c(OC)c2)cc1 (stereo unspecified)

Result:
> 100 µM
> 100 µM
> 100 µM
> 100 µM
> 100 µM
> 100 µM
